# Tested on: HER3-ss+4aa/Gaussia Luciferase
# protocol-notes: Dox-Induced Her3-ss-Gluc Assay
# Format: cell-based
# run-parameters: 24 hr doxycycline induction, 293FRT/TO cells, Gaussia luciferase signal; read-out: 24 hr Dox Inducible Her3(ss + 4)Gluc 293FRT/TO: Mean IC50
pIC50: −log10 of the molar value.
property-name: pIC50

Completed entries (count: 4):
{"compound": "O=C(Nc1nc(C2CCc3ccccc3O2)cs1)c1cccn1Cc1ccncc1 (stereo not drawn)", "pIC50": 5.51}
{"compound": "O=C(Nc1nc(/C=C/Cc2ccccc2)cs1)c1cccn1CCCc1ccncc1", "pIC50": 6.37}
{"compound": "O=C(Nc1nc(/C=C/c2ccc3ncccc3c2)cs1)c1cccn1Cc1ccncc1", "pIC50": 5.95}
{"compound": "O=C(Nc1nc2ccsc2s1)c1cccn1Cc1ccncc1", "pIC50": 5.43}

A = CC(C)OC(C)(C)c1csc(NC(=O)c2cccn2Cc2ccncc2Br)n1
B = CCOC(C)(C)c1csc(NC(=O)c2cccn2Cc2ccncc2)n1
C = Cc1sc(NC(=O)c2cccn2Cc2ccncc2)nc1C(C)OC(C)C (stereo not drawn)
D = CC(C)OC(C)(C)c1csc(NC(=O)c2cccn2Cc2c(F)cncc2F)n1
Returns the items ordered by pIC50, from maximum to minimum. Provide the ranking by listing each label in its place in the requested order.
C, B, A, D
(C: 6.29, B: 6.09, A: 5.62, D: 5.39)

1 = CC(C)OC(C)(C)c1csc(NC(=O)c2cccn2Cc2ccc([N+](=O)[O-])cc2)n1
2 = CO[C@H]1CC[C@@H](/C=C/c2csc(NC(=O)c3cccn3Cc3ccncc3)n2)CC1
3 = CC(C)OCc1csc(NC(=O)c2cccn2Cc2ccncc2)n1
4 = CC(C)OC(C)(C)c1csc(NC(=O)c2cccn2Cc2ccccc2)n1
5 = CO[C@H]1CC[C@H](/C=C/c2csc(NC(=O)c3cccn3Cc3ccncc3)n2)CC1
Rank descending by pIC50. Please list each label once, in the requested order.
2, 5, 1, 4, 3
(2: 6.72, 5: 6.17, 1: 5.72, 4: 5.28, 3: 4.92)

A = CC(C)OC(C)(C)c1csc(NC(=O)c2cccn2[C@H](C)c2ccncc2)n1
B = CC(C)(OCC1CCCCO1)c1csc(NC(=O)c2cccn2Cc2ccncc2)n1 (stereo not drawn)
Hi, I'm comparing A with B and wondering which one has the bigger number for pIC50. Any idea? // caller expects the label of the chosen entry
B

###

# Test system: IL-2-FL/Gaussia Luciferase
# protocol-notes: Dox Induced IL2-FL-Gluc Assay
# Assay type: cell-based
# run-parameters: 24 hr doxycycline induction, 293FRT/TO cells, Gaussia luciferase signal; read-out: 24 hr Dox Inducible IL2FLGIuc 293FRT/TO: Mean IC50
property-name: IC50 (nM)

{"compound": "NC(=O)c1ccc(/C=C/c2csc(NC(=O)c3cccn3Cc3ccncc3)n2)cc1", "value-unit": "nM", "IC50": 7070}
{"compound": "O=C(Nc1nc(CCc2ccccc2Cl)cs1)c1cccn1Cc1ccncc1", "value-unit": "nM", "IC50": 500}
{"compound": "O=C(Nc1nc(C2CCC2)cs1)c1cccn1Cc1ccncc1", "value-unit": "nM", "IC50": 1340}

I = O=C(Nc1nc(/C=C/c2ccccc2)cs1)c1cccn1CCCc1ccncc1
II = CC(C)(CCc1ccccc1)c1csc(NC(=O)c2cccn2Cc2ccncc2)n1
III = C/C(=C\c1csc(NC(=O)c2cccn2Cc2ccncc2)n1)c1ccccc1
IV = COc1cccc(C(C)OC(C)(C)c2csc(NC(=O)c3cccn3Cc3ccncc3)n2)c1 (stereo not drawn)
V = O=C(Nc1nc(/C=C/Cc2ccccc2)cs1)c1cccn1Cc1ccncc1
Number of compounds to sort: 5. Sort criterion: IC50, ascending. Output spec: labels arranged per the requested ranking.
IV, II, V, III, I
(IV: 148 nM, II: 486 nM, V: 779 nM, III: 1280 nM, I: 2470 nM)

###

# System: PD1-ss+10aa/Gaussia Luciferase
# protocol-notes: Dox-Induced PD1-ss-Gluc Assay
# Type: cell-based
# run-parameters: 24 hr doxycycline induction, 293FRT/TO cells, Gaussia luciferase signal; read-out: 24 hr Dox Inducible PD1ssGluc 293FRT/TO: Mean IC50
pIC50: −log10 of the molar value.
property-name: pIC50

Here's what some known entries look like.
{"compound": "O=C(Nc1nc(N2CCc3ccccc3C2)cs1)c1cccn1Cc1ccncc1 [Compound A267]", "experimental-target": "PD1-ss+10aa/Gaussia Luciferase", "property-name": "pIC50", "reported": 4.81}
{"compound": "CCc1cnc(NC(=O)c2cccn2Cc2ccncc2)s1 [Compound A65]", "experimental-target": "PD1-ss+10aa/Gaussia Luciferase", "property-name": "pIC50", "reported": 5.75}
{"compound": "O=C(Nc1nc([C@@H]2CCN(Cc3ccccc3)C2)cs1)c1cccn1Cc1ccncc1 [Compound A291]", "experimental-target": "PD1-ss+10aa/Gaussia Luciferase", "property-name": "pIC50", "reported": 6.04}
{"compound": "CC1(c2csc(NC(=O)c3cccn3Cc3ccncc3)n2)CC1 [Compound A67]", "experimental-target": "PD1-ss+10aa/Gaussia Luciferase", "property-name": "pIC50", "reported": 5.73}
{"compound": "Cc1cnccc1Cn1cccc1C(=O)Nc1nc(C(C)(C)OC(C)C)cs1 [Compound A24]", "experimental-target": "PD1-ss+10aa/Gaussia Luciferase", "property-name": "pIC50", "reported": 6.52}
{"compound": "CC1(C)CCc2sc(NC(=O)c3cccn3Cc3ccncc3)nc21 [Compound A22]", "experimental-target": "PD1-ss+10aa/Gaussia Luciferase", "property-name": "pIC50", "reported": 6.57}

A = O=C(Nc1nc(C2Cc3ccccc3O2)cs1)c1cccn1Cc1ccncc1 (stereo not drawn) [Compound A288]
B = CC(=O)N(C)c1ccc(/C=C/c2csc(NC(=O)c3cccn3Cc3ccncc3)n2)cc1 [Compound A245]
Identify the entry with the larger pIC50. Options: A and B I would appreciate it if you answered with the label of your choice.
A
(A: 6.36, B: 5.50)

###

# Test system: PD1-ss+10aa/Gaussia Luciferase
# protocol-notes: Dox-Induced PD1-ss-Gluc Assay
# Assay type: cell-based
# run-parameters: 24 hr doxycycline induction, 293FRT/TO cells, Gaussia luciferase signal; read-out: 24 hr Dox Inducible PD1ssGluc 293FRT/TO: Mean IC50
pIC50: −log10 of the molar value.
property-name: pIC50

Worked set:
{"compound": "CC(C)OC(C)(C)c1csc(NC(=O)c2cccn2Cc2ccccc2)n1 [Compound A79]", "property-name": "pIC50", "reported": 5.50}
{"compound": "O=C(Nc1nc(C2=Cc3ccccc3C2)cs1)c1cccn1Cc1ccncc1 [Compound A242]", "property-name": "pIC50", "reported": 6.55}
{"compound": "Cc1ccc2nc(NC(=O)c3cccn3Cc3ccncc3)sc2c1 [Compound A73]", "property-name": "pIC50", "reported": 5.61}

1 = CCOC(C)(C)c1csc(NC(=O)c2cccn2Cc2ccncc2)n1 [Compound A27]
2 = CC(C)OCc1csc(NC(=O)c2cccn2Cc2ccncc2)n1 [Compound A59]
I would appreciate it if you could say which entry, 1 or 2 , has the lower pIC50 value. Write the label of whichever entry you select.
2
(2: 5.82, 1: 6.35)

###

# Tested on: HER3-ss+4aa/Gaussia Luciferase
# protocol-notes: Dox-Induced Her3-ss-Gluc Assay
# Assay type: cell-based
# run-parameters: 24 hr doxycycline induction, 293FRT/TO cells, Gaussia luciferase signal; read-out: 24 hr Dox Inducible Her3(ss + 4)Gluc 293FRT/TO: Mean IC50
property-name: IC50 (nM)

{"item-smiles": "COc1ccc(C#Cc2csc(NC(=O)c3cccn3Cc3ccncc3)n2)cc1", "experimental-target": "HER3-ss+4aa/Gaussia Luciferase", "IC50 (nM)": 423}

A = O=C(Nc1nc(/C=C/c2ccc3c(c2)OC(F)(F)O3)cs1)c1cccn1Cc1ccncc1
B = O=C(Nc1nc(/C=C/C2CCCCC2)cs1)c1cccn1Cc1ccncc1
Dear colleague, could you let me know whether A or B has the lower recorded IC50? Thanks. # answer = label of selected item
A
(A: 145 nM, B: 280 nM)

###

# System: HER3-ss+4aa/Gaussia Luciferase
# protocol-notes: Dox-Induced Her3-ss-Gluc Assay
# Assay type: cell-based
# run-parameters: 24 hr doxycycline induction, 293FRT/TO cells, Gaussia luciferase signal; read-out: 24 hr Dox Inducible Her3(ss + 4)Gluc 293FRT/TO: Mean IC50
pIC50: −log10 of the molar value.
property-name: pIC50

Consider the worked cases shown below.
{"compound": "N#Cc1ccc(/C=C/c2csc(NC(=O)c3cccn3Cc3ccncc3)n2)cc1 [Compound A224]", "pIC50": 6.53}
{"compound": "CCc1cnccc1Cn1cccc1C(=O)Nc1nc(C(C)(C)OC(C)C)cs1 [Compound A250]", "pIC50": 4.81}
{"compound": "CCCc1cnc(NC(=O)c2cccn2Cc2ccncc2)s1 [Compound A62]", "pIC50": 5.37}
{"compound": "C/C(=C\\c1csc(NC(=O)c2cccn2Cc2ccncc2)n1)c1ccccc1 [Compound A252]", "pIC50": 5.95}
{"compound": "COc1cccc(C(C)OC(C)(C)c2csc(NC(=O)c3cccn3Cc3ccncc3)n2)c1 (centres unmarked) [Compound A4]", "pIC50": 7.04}

I = COc1cc(Cn2cccc2C(=O)Nc2nc(C(C)(C)OC(C)C)cs2)cc(F)n1 [Compound A70]
II = CC(/C=C/c1csc(NC(=O)c2cccn2Cc2ccncc2)n1)c1ccccc1 (centres unmarked) [Compound A251]
Hi! Which is lower in terms of pIC50, the first one I or the second one II ? Pick one; state its label.
I
(I: 5.03, II: 6.46)

P = O=C(Nc1nc(C2CCN(c3ccccc3)CC2)cs1)c1cccn1Cc1ccncc1 [Compound A282]
Q = C[C@H](OC(C)(C)c1csc(NC(=O)c2cccn2Cc2ccncc2)n1)c1ccccc1 [Compound A1]
Please indicate which entry, P or Q , has the lower recorded pIC50 value. Refer to your chosen entry by its label in the reply.
P

a = CC(C)OC(C)(C)c1csc(NC(=O)c2cccn2[C@@H](C)c2ccncc2)n1 [Compound A74]
b = COc1cccc(C#Cc2csc(NC(=O)c3cccn3Cc3ccncc3)n2)c1 [Compound A142]
Lab notebook, comparison: a versus b , higher pIC50 goes to which? // caller expects the label of the chosen entry
b

A = CC(C)(OCc1ccccn1)c1csc(NC(=O)c2cccn2Cc2ccncc2)n1 [Compound A257]
B = CC(C)OC(C)(C)c1csc(NC(=O)c2cccn2Cc2ccccc2Cl)n1 [Compound A78]
Sorting by pIC50 in descending order, would A or B appear first? Pick one and reply with its label.
A
